Origin of the recorded values: patent US20260069689A1

- Target entity: T1, SARS-CoV2 Spike ecto foldon Trimer expressed with a C-terminal myc-myc-hexahistidine (SARS-CoV-2, UniProt P0DTC2 14-1213)
- T1 construct: extracellular domain
- Assay text: SPR Biacore, mAb captured by anti-hFc, 25C
Could you please report measured Kd for the items listed next?
Your answer is read as nM, so omit the unit and give the number.

Kd reading for mAb14282 (antibody, V domains shown) VH: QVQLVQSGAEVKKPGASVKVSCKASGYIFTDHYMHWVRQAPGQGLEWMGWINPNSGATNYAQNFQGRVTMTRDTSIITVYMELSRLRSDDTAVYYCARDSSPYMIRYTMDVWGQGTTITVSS VL: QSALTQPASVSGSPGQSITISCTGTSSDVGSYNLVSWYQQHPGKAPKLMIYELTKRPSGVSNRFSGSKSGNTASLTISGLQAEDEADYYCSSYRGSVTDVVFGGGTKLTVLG : 0.0624

Kd reading for mAb14315 (antibody, V domains shown) VH: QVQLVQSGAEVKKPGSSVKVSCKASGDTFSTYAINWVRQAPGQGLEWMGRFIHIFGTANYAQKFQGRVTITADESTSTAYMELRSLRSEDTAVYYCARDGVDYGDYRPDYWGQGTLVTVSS VL: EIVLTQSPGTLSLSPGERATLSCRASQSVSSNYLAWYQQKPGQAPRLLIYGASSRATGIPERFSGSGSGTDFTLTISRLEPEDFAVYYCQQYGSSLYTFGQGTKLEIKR : 0.0483

Kd reading for mAb14289 (antibody, V domains shown) VH: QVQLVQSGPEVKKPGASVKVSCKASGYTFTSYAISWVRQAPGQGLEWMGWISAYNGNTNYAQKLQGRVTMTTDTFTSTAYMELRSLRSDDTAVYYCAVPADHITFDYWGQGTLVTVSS VL: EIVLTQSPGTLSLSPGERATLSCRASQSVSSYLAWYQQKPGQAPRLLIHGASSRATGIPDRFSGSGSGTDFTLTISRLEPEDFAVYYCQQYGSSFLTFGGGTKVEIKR : 0.0696

Kd reading for mAb14284 (antibody, V domains shown) VH: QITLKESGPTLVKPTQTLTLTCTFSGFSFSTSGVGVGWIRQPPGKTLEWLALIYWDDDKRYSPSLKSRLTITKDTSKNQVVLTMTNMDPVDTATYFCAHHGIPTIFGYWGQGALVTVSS VL: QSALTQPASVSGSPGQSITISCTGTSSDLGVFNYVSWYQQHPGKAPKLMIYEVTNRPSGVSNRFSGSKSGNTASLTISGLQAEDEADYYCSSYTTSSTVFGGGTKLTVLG : 0.0161

Kd reading for mAb14256 (antibody, V domains shown) VH: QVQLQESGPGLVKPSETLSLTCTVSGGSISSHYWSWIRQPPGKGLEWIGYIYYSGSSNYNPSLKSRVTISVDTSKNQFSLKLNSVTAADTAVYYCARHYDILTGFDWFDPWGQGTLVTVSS VL: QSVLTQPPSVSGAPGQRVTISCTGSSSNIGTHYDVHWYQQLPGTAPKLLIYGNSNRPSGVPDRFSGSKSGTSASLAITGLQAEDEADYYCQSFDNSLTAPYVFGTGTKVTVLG : 0.129

Kd reading for mAb15151 (antibody, V domains shown) VH: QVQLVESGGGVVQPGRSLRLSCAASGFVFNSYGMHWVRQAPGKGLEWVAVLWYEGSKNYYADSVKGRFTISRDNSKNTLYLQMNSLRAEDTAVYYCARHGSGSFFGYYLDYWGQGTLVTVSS VL: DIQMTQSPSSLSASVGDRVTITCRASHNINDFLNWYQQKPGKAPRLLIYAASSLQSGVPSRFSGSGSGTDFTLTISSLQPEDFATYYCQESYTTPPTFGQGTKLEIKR : 0.187
